These measurements were taken from PubChem BioAssay (NCI).

test system: CCRF-CEM leukemia; assay: NCI tumour cell line growth inhibition, 48 h; in the data active means GI50 below about 0.43 µM; inactive means the rest
Outcome (select one): true (active), false (inactive)

Please review the entries below; each comes with its answer.
{"columns": ["Compound", "Class Name"],
 "data": [
  ["CCC1(N)C(=O)OCc2c1cc1n(c2=O)Cc2cc3ccccc3nc2-1 (stereo unspecified)", "false"],
  ["COC1C(O)CC(OC2CC(OC3CC(O[C@@H]4C(=O)c5c(cc6cc(OC7CC(OC8CC(O)C(O)C(C)O8)C(O)C(C)O7)c(C)c(O)c6c5O)CC4[C@H](OC)[C@@H](O)C(C)=O)OC(C)C3O)OC(C)C2O)OC1C (stereo partly specified)", "true"],
  ["COc1c(Cl)[c]([Hg][O]C(C)=O)c(NCC(C)=O)c(OC)[c]1[Hg][O]C(C)=O", "false"],
  ["COc1cccc(NC(=O)c2ccc(NC3=C(Cl)C(=O)N(Cc4ccccc4)C3=O)cc2)c1", "false"],
  ["COc1ccc(C(=O)c2cc(C)c(OC)c(C)c2)c(OC)c1N(C(=O)CCl)C(=O)CCl", "true"],
  ["COc1cc2c(cc1OC)-c1ncc3cc(OC)c(OC)cc3c1C2", "false"],
  ["CC(C)c1cc(C(=O)[O-])c(O)c(C(C)C)c1.CC(C)c1cc(C(=O)[O-])c(O)c(C(C)C)c1.CC(C)c1cc(C(=O)[O-])c(O)c(C(C)C)c1.CC(C)c1cc(C(=O)[O-])c(O)c(C(C)C)c1.CC(C)c1cc(C(=O)[O-])c(O)c(C(C)C)c1.CC(C)c1cc(C(=O)[O-])c(O)c(C(C)C)c1.[Cu+2].[Mn+2].[Mn+2]", "false"],
  ["CCCCCCCCCC[N+](C)(C)C", "false"]
]}

stdin: Assay outcome for N#Cc1ccc(NC(=O)Nc2nc3ccc(OC(F)(F)F)cc3s2)cc1 : what was it?
stdout: false

stdin: Assay outcome for CSC1SCC2C(=O)N(C)C(C(C)C)C(=O)OCC(NC(=O)c3cnc4ccccc4n3)C(=O)NC(C)C(=O)N(C)C1C(=O)N(C)C(C(C)C)C(=O)OCC(NC(=O)c1cnc3ccccc3n1)C(=O)NC(C)C(=O)N2C (stereo unspecified) : what was it?
stdout: true

stdin: Assay outcome for O=C(Nc1ccc(-n2ccc3c(NC(=O)c4ccccc4)nccc32)cc1)c1ccc(N2CCOCC2)c(C(F)(F)F)c1 : what was it?
stdout: false

###

system: A498 renal; experiment: NCI tumour cell line growth inhibition, 48 h
Measured Quantity: TGI

Example results:
{"columns": ["Molecule", "Experimental System", "TGI"],
 "data": [
  ["CC(=Nc1ccccc1)C1=C(O)C(Cc2ccc(F)cc2)NC1=O (stereo unspecified)", "A498 renal", "5.04 µM"],
  ["CC(C)=CCc1c(O)c(C(=O)CC(C)C)c(O)c2c(-c3ccccc3)cc(=O)oc12", "A498 renal", "28.8 µM"],
  ["CN=C(N)NC", "A498 renal", "> 100 µM"],
  ["COc1cc(C2SCC(=O)N2NC(=O)c2ccc(NC(C)=O)cc2OC)ccc1O (stereo unspecified)", "A498 renal", "> 100 µM"],
  ["N/C(=N\\N=C\\c1ccc(O)c(O)c1)NO", "A498 renal", "> 100 µM"]
]}

stdin: I am curious: what TGI value has been reported for CC(C)C[C@H](NC(=O)CCc1cccc2ccccc12)B(O)O ?
stdout: 6.12 µM

stdin: I am curious: what TGI value has been reported for O=C(COC(=O)c1cccc2c(=O)c3ccccc3[nH]c12)Nc1ccc(S(=O)(=O)Nc2ncccn2)cc1 ?
stdout: > 100 µM

stdin: I am curious: what TGI value has been reported for COc1cc(OC2OC(CO)C(O)C(O)C2O)c2c(c1)O[C@@H]1[C@H](O)Oc3cc(OC)c(OC)cc3[C@]1(O)C2=O (stereo partly specified) ?
stdout: > 25 µM

stdin: I am curious: what TGI value has been reported for COc1cc2c3c(c1OC)C(=O)C(=O)C1=C3N(CCC1)CC2 ?
stdout: 92.6 µM

stdin: I am curious: what TGI value has been reported for COC(=O)c1ccc(/C=C/S(=O)(=O)c2ccccc2)cc1 ?
stdout: > 100 µM

stdin: I am curious: what TGI value has been reported for O=C1CN(c2ccccc2)C(=O)CN1CCN1CC(=O)N(c2ccccc2)CC1=O ?
stdout: > 100 µM

stdin: I am curious: what TGI value has been reported for CCCCN1CCC(O)(c2cc(C(=O)O)[nH]c2-c2cc(C)no2)C1=O (stereo unspecified) ?
stdout: > 100 µM

stdin: I am curious: what TGI value has been reported for Fc1ccc2c(c1)cc1ccc3cccc4ccc2c1c34 ?
stdout: > 100 µM

stdin: I am curious: what TGI value has been reported for C=C(C)[C@@H]1CC[C@]2(CN)CC[C@]3(C)[C@H](CC[C@@H]4[C@@]5(C)CCC(N)[C@@](C)(CO)[C@@H]5CC[C@]43C)[C@@H]12 (stereo partly specified) ?
stdout: 2.79 µM

stdin: I am curious: what TGI value has been reported for CN(C)c1c(C2CC(O)C(CO)O2)c(=O)c1=O (stereo unspecified) ?
stdout: > 100 µM

stdin: I am curious: what TGI value has been reported for CCN(CC)c1ccc(/C=N/NC(=O)c2ccccc2Nc2ccnc(C(F)(F)F)c2)c(O)c1 ?
stdout: > 32.9 µM

stdin: I am curious: what TGI value has been reported for NC(N)=NC(N)=Nc1ccc(S(N)(=O)=O)cc1 ?
stdout: > 100 µM

###

tested on: HCC-2998 colon; assay: NCI tumour cell line growth inhibition, 48 h
Measured Quantity: TGI

Example results:
{"columns": ["Compound", "Result"],
 "data": [
  ["CC(CCC(=O)O)c1ccc(Br)cc1 (configuration not stated)", "> 100 µM"],
  ["N/C(=N\\N=C\\c1ccc(O)c(O)c1)NO", "> 100 µM"],
  ["NS(=O)(=O)c1nnc(NC(=O)/C=C/C(=O)O)s1", "> 100 µM"],
  ["CCN(CCCl)c1cc(CN(C)C)cc(NC(=O)c2ccc(C(=O)Nc3ccccc3)cc2)c1", "2.51 µM"],
  ["COC(=O)CCCNC(=O)C(=O)c1c(O)c(O)c(C(C)C)c2cc(C)c(-c3c(C)cc4c(C(C)C)c(O)c(O)c(C(=O)C(=O)NCCCC(=O)OC)c4c3O)c(O)c12", "7.98 µM"],
  ["Cc1ccc(NC(=S)N=Nc2c(O)[nH]c3ccccc23)cc1", "> 100 µM"]
]}

stdin: I am curious: what TGI value has been reported for COCC(=O)NC/C=C/c1ccc2ncnc(Nc3ccc(Oc4ccc(C)nc4)c(C)c3)c2c1 ?
stdout: 39.7 µM

stdin: I am curious: what TGI value has been reported for CCN(CC)c1ccc(/C=N/NC(=O)c2ccccc2Nc2ccnc(C(F)(F)F)c2)c(O)c1 ?
stdout: > 100 µM

stdin: I am curious: what TGI value has been reported for CCCCCCC(=O)c1ccc2ccccc2c1O ?
stdout: > 100 µM

stdin: I am curious: what TGI value has been reported for Cc1ccc(N2C3=C(CC4=C2CC(C)(C)CC4=O)C(=O)CC(C)(C)C3)cc1 ?
stdout: > 100 µM

stdin: I am curious: what TGI value has been reported for CCCCSC1=N/C(=C\c2ccc(N(C)C)cc2)C(Cl)=N1 ?
stdout: > 100 µM

stdin: I am curious: what TGI value has been reported for CCCCCCC/C=C1\CCC(CN(C)C)C1=O (configuration not stated) ?
stdout: 32.1 µM

stdin: I am curious: what TGI value has been reported for COc1ccc(Br)c(C=Nc2cccc3cc(OC)c(OC)cc23)c1 ?
stdout: > 100 µM

###

Reported TGI values for a set of compounds
system: 786-0 renal; assay: NCI tumour cell line growth inhibition, 48 h

stdin: I am curious: what TGI value has been reported for Nc1ncnc2c1cnn2COCC(O)CO (stereo not given) ?
stdout: > 100 µM

stdin: I am curious: what TGI value has been reported for CC(C)=CCC/C(C)=C/CC/C(C)=C/C1CCC(=O)C1(C)C (stereo not given) ?
stdout: 32.2 µM

stdin: I am curious: what TGI value has been reported for CC(C)(C)OC(=O)N1CCC(NC(=O)NC2CCN(C(=O)OC(C)(C)C)CC2)CC1 ?
stdout: > 100 µM

stdin: I am curious: what TGI value has been reported for CN(C(=O)c1ccc(Cl)cc1)C(=S)N1CCN(c2ccccc2)CC1 ?
stdout: > 100 µM

stdin: I am curious: what TGI value has been reported for COc1ccc(-c2nc(SC)n(C3OC(COC(C)=O)C(OC(C)=O)C(OC(C)=O)C3OC(C)=O)c(=O)c2C#N)cc1 (stereo not given) ?
stdout: > 100 µM

###

Reported TGI values for a set of molecules
test system: T-47D breast; assay: NCI tumour cell line growth inhibition, 48 h

{"columns": ["Molecule", "Measured Quantity", "Result"],
 "data": [
  ["CC1(C)/C(=N\\Nc2ccc([N+](=O)[O-])cc2[N+](=O)[O-])C2CCC1C2 (centres undefined)", "TGI", "> 100 µM"],
  ["COCC(=O)NC/C=C/c1ccc2ncnc(Nc3ccc(Oc4ccc(C)nc4)c(C)c3)c2c1", "TGI", "13.6 µM"],
  ["N[C@@H](Cc1ccc2oc3cc(=O)c4ccccc4c-3nc2c1)C(=O)O", "TGI", "> 100 µM"],
  ["COc1ccc2c(c1)OC1c3ccccc3OCC21 (centres undefined)", "TGI", "> 100 µM"],
  ["CCCCCCC(O)C(O)CCC(O)C1CCC(CCCCC(O)CC2=CC(C)OC2=O)O1 (centres undefined)", "TGI", "40.7 µM"]
]}

stdin: I am curious: what TGI value has been reported for COc1cc2c3cc1Oc1c(OC)c(OC)cc4c1C(Cc1ccc(O)c(c1)-c1cc(ccc1OC)CC3N(C)CC2)N(C)CC4 (centres undefined) ?
stdout: 68.9 µM

stdin: I am curious: what TGI value has been reported for C=CC(C)(C)n1cc(C2=C(O)C(=O)C(c3c(CC=C(C)C)[nH]c4ccccc34)=C(O)C2=O)c2ccccc21 ?
stdout: 7.59 µM

stdin: I am curious: what TGI value has been reported for COC(=O)CCCNC(=O)C(=O)c1c(O)c(O)c(C(C)C)c2cc(C)c(-c3c(C)cc4c(C(C)C)c(O)c(O)c(C(=O)C(=O)NCCCC(=O)OC)c4c3O)c(O)c12 ?
stdout: 3.06 µM

stdin: I am curious: what TGI value has been reported for Nc1nc(Cc2ccccc2)nc(Cc2ccccc2)c1-c1ccccc1 ?
stdout: > 100 µM
